Ref: paper PMC12249915

experiment description: Solubility of ceftobiprole determined by HPLC
Type: physicochemical
settings: 0.1 M aqueous formic acid (HCOOH), solubility of ceftobiprole before use of 0.1 M formic acid and SBE-β-CD
recorded metric: solubility

Asked: Name the recorded solubility of the compound listed here: Nc1nc(/C(=N/O)C(=O)N[C@@H]2C(=O)N3C(C(=O)O)=C(/C=C4\CCN([C@@H]5CCNC5)C4=O)CS[C@H]23)ns1
Given back: ~100 µg/mL
